assay-comment: Pharmacokinetics of Compound 1 in combination with MK-3475 in subjects with various cancers
Assay type: in vivo, human
condition-details: human, plasma, oral, 100 mg, Diagnosis NSCLC PD-L1 Low/NE, first dose, mean ± SD; read-out: AUC0-t
measurement-type: AUC(0-t)

Entry NS(=O)(=O)NCCNc1nonc1C(=NO)Nc1ccc(F)c(Br)c1 , AUC(0-t) reported as 2.77 µM·h

---

assay-comment: Dose-escalation study of Compound 1 pharmacokinetics in subjects with advanced malignancies (tablets of Formulations 1 and/or 3, fasted; food effect cohort)
Type: in vivo, human
condition-details: 700 mg BID, steady state, mean ± SD
measurement-type: Cmax (µM)
Give just the numeric value; µM need not be written.

Cmax recorded for this molecule, NS(=O)(=O)NCCNc1nonc1C(=NO)Nc1ccc(F)c(Br)c1 [Compound 1] , is 6.23

---

assay-comment: Pharmacokinetics of Compound 1 in combination with MK-3475 in subjects with various cancers
Type: in vivo, human
condition-details: human, plasma, oral, 100 mg BID, Diagnosis NSCLC PD-L1 High, steady state C1D8, mean ± SD; read-out: Cmin
measurement-type: concentration at 8 day (cycle 1) (nM)
All answers are understood in nM, so give the number only.

For NS(=O)(=O)NCCNc1nonc1C(=NO)Nc1ccc(F)c(Br)c1 [Compound 1] the molecule record lists concentration at 8 day (cycle 1) as 159

---

assay-comment: Pharmacokinetics of Compound 1 in combination with MK-3475 in subjects with various cancers
Assay type: in vivo, human
condition-details: human, plasma, oral, 100 mg, Diagnosis MEL, first dose, geometric mean; read-out: AUC0-t
measurement-type: AUC(0-t) (µM·h)
Answer with a number only, understood to be in µM·h.

The compound listed as NS(=O)(=O)NCCNc1nonc1C(=NO)Nc1ccc(F)c(Br)c1 shows AUC(0-t) equal to 2.37

---

assay-comment: Pharmacokinetics of Compound 1 in combination with MK-3475 in subjects with various cancers
Assay type: in vivo, human
condition-details: human, plasma, oral, 300 mg, Cohort 6, 300 mg BID, steady state C1D8, mean ± SD; read-out: AUC0-12 h (converted)
measurement-type: AUC(0-t)

# AUC(0-t) (molecule: NS(=O)(=O)NCCNc1nonc1C(=NO)Nc1ccc(F)c(Br)c1 ) is 12.3 µM·h

---

assay-comment: Pharmacokinetics of Compound 1 in combination with MK-3475 in subjects with various cancers
Type: in vivo, human
condition-details: human, plasma, oral, 100 mg, by dose, 100 mg BID, steady state C1D8, mean ± SD; read-out: AUC0-12 h (converted)
measurement-type: AUC(0-t) (µM·h)
Note: unit µM·h is implicit; provide only the numeric part.

Entry under test: NS(=O)(=O)NCCNc1nonc1C(=NO)Nc1ccc(F)c(Br)c1 . Its AUC(0-t) was 3.82

---

assay-comment: Pharmacokinetics of Compound 1 in combination with MK-3475 in subjects with various cancers
Format: in vivo, human
condition-details: human, plasma, oral, 300 mg, subjects with dose reduction before C4D1, 300 mg BID, C1D8, mean ± SD
measurement-type: Cmax (µM)
Respond numerically; units are µM and should not be typed.

Notebook: NS(=O)(=O)NCCNc1nonc1C(=NO)Nc1ccc(F)c(Br)c1 [Compound 1] , Cmax read as 3.18

---

assay-comment: Pharmacokinetics of Compound 1 in combination with MK-3475 in subjects with various cancers
Format: in vivo, human
condition-details: human, plasma, oral, 100 mg BID, Diagnosis MEL, steady state C1D8, mean ± SD; read-out: AUC0-12 h (converted)
measurement-type: AUC(0-t)
Express your answer as a number followed by its unit.

# AUC(0-t) (compound: NS(=O)(=O)NCCNc1nonc1C(=NO)Nc1ccc(F)c(Br)c1 ) is 3.68 µM·h

---

assay-comment: Pharmacokinetics of Compound 1 in combination with MK-3475 in subjects with various cancers
Format: in vivo, human
condition-details: Cohort 1, 25 mg, first dose, mean ± SD
measurement-type: Cmax (nM)
Give the value in nM but do not write nM after it.

Just so you know, measured Cmax for NS(=O)(=O)NCCNc1nonc1C(=NO)Nc1ccc(F)c(Br)c1 came out at 231

---

assay-comment: Pharmacokinetics of Compound 1 in combination with MK-3475 in subjects with various cancers
Format: in vivo, human
condition-details: human, plasma, oral, 100 mg, Diagnosis GU, first dose, geometric mean
measurement-type: Cmax (nM)
Express your answer in nM, writing the number without its unit.

For reference, reported Cmax for NS(=O)(=O)NCCNc1nonc1C(=NO)Nc1ccc(F)c(Br)c1 stands at 878

---

assay-comment: Pharmacokinetics of Compound 1 in combination with MK-3475 in subjects with various cancers
Assay type: in vivo, human
condition-details: human, plasma, oral, 25 mg, by dose, 25 mg BID, steady state C1D8, geometric mean; read-out: AUC0-12 h (converted)
measurement-type: AUC(0-t) (µM·h)
# value in µM·h; strip the unit string

Sure, the documented AUC(0-t) for NS(=O)(=O)NCCNc1nonc1C(=NO)Nc1ccc(F)c(Br)c1 is 1.25

---

assay-comment: Pharmacokinetics of Compound 1 in combination with MK-3475 in subjects with various cancers
Format: in vivo, human
condition-details: human, plasma, oral, 100 mg BID, Diagnosis DLBCL, steady state C1D8, individual values of 2 subjects; read-out: AUC0-12 h (converted)
measurement-type: AUC(0-t) (µM·h)
Numeric only. Scale: µM·h

Given item NS(=O)(=O)NCCNc1nonc1C(=NO)Nc1ccc(F)c(Br)c1 , the value recorded as its AUC(0-t) is 5.32

---

assay-comment: Pharmacokinetics of Compound 1 in combination with MK-3475 in subjects with various cancers
Assay type: in vivo, human
condition-details: human, plasma, oral, 300 mg, Cohort 6, 300 mg BID, steady state C1D8, geometric mean; read-out: AUC0-12 h (converted)
measurement-type: AUC(0-t) (µM·h)
Unit µM·h implied. Number only.

In plain terms, NS(=O)(=O)NCCNc1nonc1C(=NO)Nc1ccc(F)c(Br)c1 has a documented AUC(0-t) of 11.3

---

assay-comment: Dose-escalation study of Compound 1 pharmacokinetics in subjects with advanced malignancies (tablets of Formulations 1 and/or 3, fasted; food effect cohort)
Assay type: in vivo, human
condition-details: human, plasma, oral, 600 mg, 600 mg BID, steady state, geometric mean; read-out: AUC0-t
measurement-type: AUC(0-t) (µM·h)
Only the number, expressed in µM·h, is required.

// recorded AUC(0-t) for NS(=O)(=O)NCCNc1nonc1C(=NO)Nc1ccc(F)c(Br)c1 [Compound 1] : 18.3

---

assay-comment: Pharmacokinetics of Compound 1 in combination with MK-3475 in subjects with various cancers
Assay type: in vivo, human
condition-details: human, plasma, oral, 300 mg, Cohort 7, 300 mg BID, steady state C1D8, mean ± SD; read-out: AUC0-12 h (converted)
measurement-type: AUC(0-t) (µM·h)
Give just the numeric value; µM·h need not be written.

get_value(item= NS(=O)(=O)NCCNc1nonc1C(=NO)Nc1ccc(F)c(Br)c1 , readout=AUC(0-t)) returns 12.2

---

assay-comment: Pharmacokinetics of Compound 1 in combination with MK-3475 in subjects with various cancers
Assay type: in vivo, human
condition-details: human, plasma, oral, 100 mg BID, Diagnosis MEL, steady state C1D8, geometric mean
measurement-type: Cmax (nM)
Give the quantity in nM, number only.

Value of Cmax reported for the molecule NS(=O)(=O)NCCNc1nonc1C(=NO)Nc1ccc(F)c(Br)c1 is 945

---

assay-comment: Pharmacokinetics of Compound 1 in combination with MK-3475 in subjects with various cancers
Type: in vivo, human
condition-details: by dose, 100 mg BID, steady state C1D8, mean ± SD
measurement-type: Cmax (nM)
Write it as a number; the unit nM goes unstated.

The recorded Cmax for NS(=O)(=O)NCCNc1nonc1C(=NO)Nc1ccc(F)c(Br)c1 [Compound 1] is 917

---

assay-comment: Pharmacokinetics of Compound 1 in combination with MK-3475 in subjects with various cancers
Assay type: in vivo, human
condition-details: human, plasma, oral, 50 mg, Cohort 4 (MEL), first dose, geometric mean
measurement-type: Cmax (nM)
Output spec: scalar in nM, unitless text.

The molecule listed as NS(=O)(=O)NCCNc1nonc1C(=NO)Nc1ccc(F)c(Br)c1 shows Cmax equal to 474
